Collected remaining activity at 100 µM values appear next to each entry.
# test_target: E. coli MurF (Escherichia coli)
# Sequence (P11880 whole entry): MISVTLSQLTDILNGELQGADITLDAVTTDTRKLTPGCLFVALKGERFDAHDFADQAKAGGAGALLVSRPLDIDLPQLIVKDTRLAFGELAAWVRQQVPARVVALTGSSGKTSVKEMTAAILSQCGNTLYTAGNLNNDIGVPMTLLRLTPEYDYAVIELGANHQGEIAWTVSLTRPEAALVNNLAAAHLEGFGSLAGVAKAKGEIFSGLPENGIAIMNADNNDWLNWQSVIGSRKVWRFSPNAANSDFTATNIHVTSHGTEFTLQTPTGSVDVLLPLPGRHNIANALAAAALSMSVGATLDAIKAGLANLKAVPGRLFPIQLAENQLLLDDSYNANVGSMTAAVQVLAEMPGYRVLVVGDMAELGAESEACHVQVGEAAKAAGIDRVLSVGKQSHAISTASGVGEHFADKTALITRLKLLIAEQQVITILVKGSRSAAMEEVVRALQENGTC
# procedure_text: biochemical
# condition_context: 0.25 h, Table S1, PKIS screening; read-out: RA [%] at 100 µM MurF
quantity_kind: remaining activity at 100 µM (%)

- CCOc1ccc2c(-c3ccnc(Nc4cc(OC)cc(C(F)(F)F)c4)n3)cnn2n1 [GW807982X]: 50
- O=C1Nc2ccc(I)cc2C1=Cc1cc(Br)c(O)c(Br)c1 [GW305074X]: 78
- CCn1c(-c2nonc2N)nc2c(C#CC(C)(C)O)ncc(OCC3CCNCC3)c21 [GSK554170A]: 96
- Nc1nc(-c2ccc3c(c2)C(=Cc2cc(Br)c(O)c(Br)c2)C(=O)N3)cs1 [GW407323A]: 41
- c1ccc(-c2n[nH]cc2-c2ccnc(-c3ccc(OCCn4ccnc4)cc3)c2)nc1 [GW711782X]: 93
- CCNC(=O)O[C@H]1CN[C@H](C#Cc2cc3ncnc(Nc4ccc(OCc5cccc(F)c5)c(Cl)c4)c3s2)C1 [GSK192082A]: 50
- Clc1ccc(CNc2nccc(-c3cnn4ncccc34)n2)cc1 [GW781673X]: 63
- CCn1c(-c2nonc2N)nc2c(C#CCN)ncc(OCCCN)c21 [GSK561866B]: 66
- CCn1c(-c2nonc2N)nc2ccc(F)cc21 [GW785404X]: 79
- FC(F)(F)c1ccc(-c2nn3ncccc3c2-c2ccnc(Nc3ccc4c(c3)OCCO4)n2)cc1 [GW828525X]: 47
- COc1ccc(COc2ccc(Cc3cnc(N)nc3N)cc2OC)cc1 [GW632580X]: 99
- CS(=O)(=O)CCNCc1ccc(-c2ccc3ncnc(Nc4ccc(OCc5cccc(F)c5)c(C(F)(F)F)c4)c3c2)o1 [GW576484X]: 100
- NC(=O)Cc1ccccc1Oc1nccc(-c2c(-c3ccc(F)cc3)ncn2C2CCNCC2)n1 [SB-264865]: 98
- CCn1c(-c2nonc2N)nc2ccccc21 [SB-693162]: 100
- O=C(NCC1CC1)c1ccc(-c2cccc(C(=O)NC3CC3)c2)cc1 [GW806776X]: 78
- CCn1c(-c2nonc2N)nc2c(C#CC(C)(C)O)ncc(OC[C@@H]3CCCN3)c21 [GSK614526A]: 100
- COc1ccccc1-c1cc(/C=C2\C(=O)Nc3ncc(Br)cc32)cc(Br)c1O [GW442130X]: 67
- CCn1c(-c2nonc2N)nc2cnc(Oc3cccc(NC(=O)c4ccc(OCCN5CCOCC5)cc4)c3)cc21 [GSK269962B]: 66
- NS(=O)(=O)c1ccc(N/N=C2\C(=O)Nc3ccc(-c4cnco4)cc32)cc1 [GW276655X]: 22
- c1ccc(Oc2ccc(Nc3ncc(-c4ccccc4)o3)cc2)cc1 [GW641155A]: 86
- NS(=O)(=O)c1ccc(NN=C2C(=O)Nc3cccc(CCc4ccncc4)c32)cc1 [GW352430A]: 37
- N#Cc1c(NC(=O)c2ccccc2F)sc2c1CCCC2 [GW572738X]: 100
- Cc1nnc(-c2ccc(C)c(-c3ccc(C(=O)Nc4cccc(C#N)c4)cc3)c2)o1 [GW607117X]: 90
- COc1ccc(-c2cc3c(N)ncnc3o2)cc1 [GW642138X]: 81
